# Tested on: pepsin
# ASSAY_PROTOCOL: Peptide stability in the presence of pepsin, RP-HPLC
# Type: in vitro ADME
# CONDITION_INFO: 20 μg pepsin, pH 1.05, 30 minutes at 37.5° C.
# Method: This example describes peptide stability in the presence of pepsin, trypsin, a reducing agent, or elevated temperature. Peptides were first suspended in 500 µl of ddH2O to a stock concentration of 2 mg/ml. […] These reactions were then quenched with 5 μg of soybean trypsin inhibitor (I) and, in some cases, 10 mM dithiothreitol (DTT). […] Temperature stability was tested by incubating peptides in non-reducing conditions at 70° C. for 1 hour. Stability was evaluated by RP-HPLC.
MEASURED_QUANTITY: Pepsin

Example entries begin here.
sequence_chain="GSQFTNVSCTTSRECWSVCQRLHNTSRGRCMNRRCRCYS [SEQ ID NO: 5]" measured_value=Resistant
sequence_chain="GSQIDTNVKCSGSSKCVKICIDRYNTRGAKCINGRCTCYP [SEQ ID NO: 27]" measured_value="Not Resistant"
sequence_chain="GSGVPINVKCRGSRDCLDPCKKAGMRFGKCINSKCHCTP [SEQ ID NO: 11]" measured_value=Resistant
sequence_chain="GSACLAEYQKCEGSTVPCCPGLSCSAGRFRKTKLCTK [SEQ ID NO: 32]" measured_value=Resistant

Please examine the following record next.
Please indicate Pepsin recorded for GSVVIGQRCYRSPDCYSACKKLVGKATGKCTNGRCDC [SEQ ID NO: 33]
Resistant

---

# Tested on: trypsin
# ASSAY_PROTOCOL: Peptide stability in the presence of trypsin, RP-HPLC
# Type: in vitro ADME
# CONDITION_INFO: 5 μg trypsin, pH 7.0, 30 minutes at 37.5° C.
# Procedure: This example describes peptide stability in the presence of pepsin, trypsin, a reducing agent, or elevated temperature. Peptides were first suspended in 500 µl of ddH2O to a stock concentration of 2 mg/ml. […] These reactions were then quenched with 5 μg of soybean trypsin inhibitor (I) and, in some cases, 10 mM dithiothreitol (DTT). […] Temperature stability was tested by incubating peptides in non-reducing conditions at 70° C. for 1 hour. Stability was evaluated by RP-HPLC.
MEASURED_QUANTITY: Trypsin

Example entries begin here.
sequence_chain="GSEVIRCSGSKQCYGPCKQQTGCTNSKCMNKVCKCYGCG [SEQ ID NO: 8]" measured_quantity=Trypsin measured_value="Partially Resistant"
sequence_chain="GSQVSTNKKCSNTSQCYKTCEKVVGVAAGKCMNGKCICYP [SEQ ID NO: 37]" measured_quantity=Trypsin measured_value="Partially Resistant"
sequence_chain="GSCIGEGVPCDENDPRCCFGLVCLKPTLHGIWYKSYYCYKK [SEQ ID NO: 30]" measured_quantity=Trypsin measured_value="Partially Resistant"
sequence_chain="GSRPTDIKCSASYQCFPVCKSRFGKTNGRCVNGLCDCF [SEQ ID NO: 24]" measured_quantity=Trypsin measured_value="Partially Resistant"
sequence_chain="GSAEIIRCSGTRECYAPCQKLTGCLNAKCMNKACKCYGCV [SEQ ID NO: 28]" measured_quantity=Trypsin measured_value="Not Resistant"

Please indicate Trypsin recorded for GSSCAKPRENCNRMNILCCRGECVCPTFGDCFCYGD [SEQ ID NO: 10]
Not Resistant

Please indicate Trypsin recorded for GSQFTDVKCTGSKQCWPVCKQMFGKPNGKCMNGKCRCYS [SEQ ID NO: 26]
Partially Resistant

Please indicate Trypsin recorded for GSQDKCKKVYENYPVSKCQLANQCNYDCKLDKHARSGECFYDEKRNLQCICDYCEY [SEQ ID NO: 39]
Partially Resistant

Please indicate Trypsin recorded for GSGCFGYKCDYYKGCCSGYVCSPTWKWCVRPGPGR [SEQ ID NO: 16]
Not Resistant

Please indicate Trypsin recorded for GSDCLPHLRRCRADNDCCGRRCRRRGTNAERRCR [SEQ ID NO: 1]
Partially Resistant

---

# ASSAY_PROTOCOL: Whole body autoradiography of 14C labeled peptides, renal cortex and blood
# Type: in vivo, mice
# CONDITION_INFO: renal cortex vs blood from the ventricle, 100 nmol iv, 3 hours
MEASURED_QUANTITY: Signal ratio Kidney:Blood (3 hours)
# respond with the number and nothing more

sequence_chain="GSVRIPVSCRHSGQCLRPCRDAGMRFGRCMNGRCDCTPR [SEQ ID NO: 57]" measured_value=8
sequence_chain="GSSERDCIRHLQRCRENRDCCSRRCSRRGTNPERRCR [SEQ ID NO: 56]" measured_value=29.9
sequence_chain="GSGVPINVRSRGSRDSLDPSRRAGMRFGRSINSRSHSTP [SEQ ID NO: 119, reference compound]" measured_value=5.1
sequence_chain="GSQFTNVSCTTSRECWSVCQRLHNTSRGRCMNRRCRCYS [SEQ ID NO: 5]" measured_value=27.2
sequence_chain="GSSCARPRENCNRMNILCCRGECVCPTFGDCFCYGD [SEQ ID NO: 54]" measured_value=0.8
sequence_chain="GSSCEPGTTFRDRCNTCRCGSDGRSAACTLRACPQ [SEQ ID NO: 46]" measured_value=4.7

Please indicate Signal ratio Kidney:Blood (3 hours) recorded for GSGDCLPHLRRCRENNDCCSRRCRRRGANPERRCR [SEQ ID NO: 59]
31.2

Please indicate Signal ratio Kidney:Blood (3 hours) recorded for GSQVQTNVRCQGGSCASVCRREIGVAAGRCINGRCVCYRN [SEQ ID NO: 58]
9.9

---

# ASSAY_PROTOCOL: Peptide stability to a reducing agent (DTT), RP-HPLC
# Type: physicochemical
# CONDITION_INFO: 10 mM DTT in PBS, room temperature, 30 minutes
MEASURED_QUANTITY: Reduction

Example entries begin here.
sequence_chain="GSVFINVKCRGSPECLPKCKEAIGKSAGKCMNGKCKCYP [SEQ ID NO: 36]" measured_value="Not Resistant"
sequence_chain="GSQFTNVSCTTSRECWSVCQRLHNTSRGRCMNRRCRCYS [SEQ ID NO: 5]" measured_value=Resistant
sequence_chain="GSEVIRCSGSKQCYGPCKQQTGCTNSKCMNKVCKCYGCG [SEQ ID NO: 8]" measured_value="Not Resistant"
sequence_chain="GSDCLPHLRRCRADNDCCGRRCRRRGTNAERRCR [SEQ ID NO: 1]" measured_value="Not Resistant"
sequence_chain="GSQKILSNRCNNSSECIPHCIRIFGTRAAKCINRKCYCYP [SEQ ID NO: 20]" measured_value=Resistant
sequence_chain="GSSEKDCIKHLQRCRENKDCCSKKCSRRGTNPEKRCR [SEQ ID NO: 9]" measured_value="Not Resistant"
sequence_chain="GSDRDSCIDKSRCSKYGYYQECQDCCKKAGHNGGTCMFFKCKCA [SEQ ID NO: 21]" measured_value="Not Resistant"

Please indicate Reduction recorded for GSQVQTNVKCQGGSCASVCRREIGVAAGKCINGKCVCYRN [SEQ ID NO: 17]
Not Resistant

---

# ASSAY_PROTOCOL: Peptide stability to a reducing agent (DTT), RP-HPLC
# Format: physicochemical
# CONDITION_INFO: 10 mM DTT in PBS, room temperature, 30 minutes
MEASURED_QUANTITY: Reduction

Example entries begin here.
sequence_chain="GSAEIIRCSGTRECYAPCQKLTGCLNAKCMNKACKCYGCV [SEQ ID NO: 28]" measured_value="Partially Resistant"
sequence_chain="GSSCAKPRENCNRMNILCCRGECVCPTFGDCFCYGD [SEQ ID NO: 10]" measured_value="Not Resistant"
sequence_chain="GSECLEIFKACNPSNDQCCKSSKLVCSRKTRWCKYQIG [SEQ ID NO: 38]" measured_value="Not Resistant"
sequence_chain="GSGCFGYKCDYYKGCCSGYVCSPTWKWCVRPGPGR [SEQ ID NO: 16]" measured_value="Not Resistant"
sequence_chain="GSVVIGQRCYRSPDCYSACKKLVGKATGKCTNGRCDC [SEQ ID NO: 33]" measured_value="Not Resistant"
sequence_chain="GSGDCLPHLKRCKENNDCCSKKCKRRGANPEKRCR [SEQ ID NO: 18]" measured_value="Partially Resistant"

Please indicate Reduction recorded for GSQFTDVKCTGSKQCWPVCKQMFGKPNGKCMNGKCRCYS [SEQ ID NO: 26]
Not Resistant

Please indicate Reduction recorded for GSQFCGTNGKPCVNGQCCGALRCVVTYHYADGVCLKMNP [SEQ ID NO: 23]
Not Resistant

---

# ASSAY_PROTOCOL: Whole body autoradiography of 14C labeled peptides, renal cortex and blood
# Assay type: in vivo, mice
# CONDITION_INFO: renal cortex vs blood from the ventricle, 100 nmol iv, 24 hours
MEASURED_QUANTITY: Signal ratio Kidney:Blood (24 hours)
# respond with the number and nothing more

Example entries begin here.
sequence_chain="GSSCEPGTTFRDRCNTCRCGSDGRSAACTLRACPQ [SEQ ID NO: 46]" measured_value=6
sequence_chain="GSSCARPRENCNRMNILCCRGECVCPTFGDCFCYGD [SEQ ID NO: 54]" measured_value=7.2
sequence_chain="GSQVQTNVRCQGGSCASVCRREIGVAAGRCINGRCVCYRN [SEQ ID NO: 58]" measured_value=4.1

Please indicate Signal ratio Kidney:Blood (24 hours) recorded for GSGVPINVRCRGSRDCLDPCRRAGMRFGRCINSRCHCTP [SEQ ID NO: 55]
10.7
